- Tested on: CP291
- ASSAY PROCEDURE: qHTS profiling for inhibitors of Plasmodium falciparum proliferation (AID 504749); note: nearly all actives have a fitted effect of over 60% in size
- DETAILS: P. falciparum in erythrocytes, SYBR Green DNA, 72 h; series mostly up to 28.7 µM
Inconclusive results are not listed. The source made the active and inactive calls. Calls come from the whole dose curve; as a rule, active = well fitted inhibition curve with a large enough effect; inconclusive = small, poorly fitted or top-dose-only effect; inactive = flat fitted curve, though single readings scatter.
Bench note: report the call from active, inactive

Example results:
>>> df
                                   compound  target_entity  class_label
0  COc1ccc(-c2ccc3cc(C(=O)O)ccc3c2)cc1C12CC3CC(CC(C3)C1)C2          CP291     inactive
1                      O=c1cc(O)c(Cl)c[nH]1          CP291     inactive
2  Nc1nc(N)c2nc(CNc3ccc(C(=O)NC(CCC(=O)O)C(=O)O)cc3)cnc2n1 (stereo not given)          CP291     inactive
3         CNCC[C@H](Oc1cccc2ccccc12)c1cccs1          CP291     inactive
4        OC(Cn1cncn1)(Cn1cncn1)c1ccc(F)cc1F          CP291     inactive

Called result for `Nc1[nH]c(=O)ncc1F`
inactive

Any idea what this test logged for `CC(C)(Sc1cc(C(C)(C)C)c(O)c(C(C)(C)C)c1)Sc1cc(C(C)(C)C)c(O)c(C(C)(C)C)c1` ?
inactive

# lookup: test call for `C#CCN[C@@H]1CCc2ccccc21`
inactive

Returns: the outcome recorded for `CC[C@H](NC(C)C)[C@H](O)c1ccc(O)c2[nH]c(=O)ccc12` in this assay.
inactive

# lookup: test call for `O=S(=O)(O)CCS`
inactive

Each compound tested received a call. Report the one for `CCOC(=O)[C@H](CCc1ccccc1)N[C@H]1CS[C@H](c2cccs2)CN(CC(=O)O)C1=O` .
inactive

How was `COc1ncnc(NS(=O)(=O)c2ccc(N)cc2)c1OC` classified in this test?
inactive

Answer briefly: the call reported for `CN(C)c1ccc(C(=C2C=CC(=[N+](C)C)C=C2)c2ccc(N(C)C)cc2)cc1` in this assay.
active

Query: recorded result category for `Cc1noc(NS(=O)(=O)c2ccc(N)cc2)c1C` in this test
inactive

// return assay outcome for `N[C@@H](Cc1ccc(O)c(O)c1)C(=O)O`
inactive

Please indicate how the test categorized `Nc1ccc(S(=O)(=O)Nc2ccccn2)cc1` .
inactive

Which outcome was entered for the compound `N=C(N)c1ccc(OCCCCCOc2ccc(C(=N)N)cc2)cc1` in this test?
active

----------
- Tested on: 7G8
- ASSAY PROCEDURE: qHTS profiling for inhibitors of Plasmodium falciparum proliferation (AID 504749); note: nearly all actives have a fitted effect of over 60% in size
- DETAILS: P. falciparum in erythrocytes, SYBR Green DNA, 72 h; series mostly up to 28.7 µM
Records with an inconclusive call do not appear. The source made the active and inactive calls. Calls follow the shape of the dose curve; as a rule, active = well fitted inhibition curve with a large enough effect; inconclusive = small, poorly fitted or top-dose-only effect; inactive = flat fitted curve, though single readings scatter.
Output constraint: value belongs to active, inactive

Check out these entries, answers already filled in.
>>> df
                                   compound  target_entity  class_label
0                         Nc1[nH]c(=O)ncc1F            7G8     inactive
1  C1CCC(C(CC2CCCCN2)C2CCCCC2)CC1 (configuration not stated)            7G8       active

Switching to the query record.
# fetch the recorded call for CCOc1cc(N)c(Cl)cc1C(=O)NCC1CN(Cc2ccc(F)cc2)CCO1 (configuration not stated) here
active
